system: PC3 PD-L1 overexpressing and PD-L1-mock tumors; assay: PET imaging in NMRI-nude mice bearing PC3 PD-L1 and PC3 mock tumors; format: in vivo; conditions: tracer only, 1-2 hour p.i., i.v., mice
Hi there, I'd appreciate the recorded SUVmax PC3 PD-L1 tumor for every entry that follows.
No unit in the answer, only the number.

Asked: Quick check: SUVmax PC3 PD-L1 tumor of Cc1c(COc2cc(OCc3cncc(S(C)(=O)=O)c3)c(CN[C@@H](CS(=O)(=O)O)C(=O)NCCS(=O)(=O)O)cc2Br)cccc1-c1cccc(OCc2cn(CCCN3CCN(C(=O)[C@H](CS(=O)(=O)O)NC(=O)CC[C@H](C(=O)[O-])N4CCN(CC(=O)[O-])CCN(CC(=O)[O-])CC4)CC3)nn2)c1C.[64Cu+2] [[^64Cu]Cu-14] ?
Given back: 1.71

Asked: Consider the compound Cc1c(COc2cc(OCc3cncc(S(C)(=O)=O)c3)c(CN[C@@H](CS(=O)(=O)O)C(=O)NCCS(=O)(=O)O)cc2Br)cccc1-c1cccc(OCc2cn(CCCN3CCN(C(=O)[C@H](CS(=O)(=O)O)NC(=O)CN4CCCN5CCN(CCCN(CC(=O)[O-])CC5)CC4)CC3)nn2)c1C.[64Cu+2] [[^64Cu]Cu-15] and give its measured SUVmax PC3 PD-L1 tumor.
Given back: 1.03

Asked: SUVmax PC3 PD-L1 tumor for Cc1c(COc2cc(OCc3cncc(S(C)(=O)=O)c3)c(CN[C@@H](CS(=O)(=O)O)C(=O)NCCS(=O)(=O)O)cc2Br)cccc1-c1cccc(OCc2cn(CCCN3CCN(C(=O)[C@H](CS(=O)(=O)O)NC(=O)CCCC(=O)NC45CNCCNCC(N)(CNCCNC4)CNCCNC5)CC3)nn2)c1C.[64Cu+2] [[^64Cu]Cu-16] ?
Given back: 1.61

* * *

tested on: PC3 PD-L1 overexpressing and PD-L1-mock tumors; experiment: PET imaging in NMRI-nude mice bearing PC3 PD-L1 and PC3 mock tumors; format: in vivo; details: tracer only, 4-5 hour p.i., i.v., mice
property.name: SUVmax PC3 PD-L1 tumor

Asked: Which SUVmax PC3 PD-L1 tumor is listed for Cc1c(COc2cc(OCc3cncc(S(C)(=O)=O)c3)c(CN[C@@H](CS(=O)(=O)O)C(=O)NCCS(=O)(=O)O)cc2Br)cccc1-c1cccc(OCc2cn(CCCN3CCN(C(=O)[C@H](CS(=O)(=O)O)NC(=O)CCCC(=O)NC45CNCCNCC(NC(=O)CCCC(=O)N[C@@H](CS(=O)(=O)O)C(=O)N6CCN(CCCn7cc(COc8cccc(-c9cccc(COc%10cc(OCc%11cncc(S(C)(=O)=O)c%11)c(CN[C@@H](CS(=O)(=O)O)C(=O)NCCS(=O)(=O)O)cc%10Br)c9C)c8C)nn7)CC6)(CNCCNC4)CNCCNC5)CC3)nn2)c1C.[64Cu+2] [[^64Cu]Cu-17] ?
Given back: 0.81

Asked: Report SUVmax PC3 PD-L1 tumor for Cc1c(COc2cc(OCc3cncc(S(C)(=O)=O)c3)c(CN[C@@H](CS(=O)(=O)O)C(=O)NCCS(=O)(=O)O)cc2Br)cccc1-c1cccc(OCc2cn(CCCN3CCN(C(=O)[C@H](CS(=O)(=O)O)NC(=O)CCCC(=O)NC45CNCCNCC(N)(CNCCNC4)CNCCNC5)CC3)nn2)c1C.[64Cu+2] [[^64Cu]Cu-16] please.
Given back: 0.89

Asked: What value of SUVmax PC3 PD-L1 tumor has been reported for the following compound? Cc1c(COc2cc(OCc3cncc(S(C)(=O)=O)c3)c(CN[C@@H](CS(=O)(=O)O)C(=O)NCCS(=O)(=O)O)cc2Br)cccc1-c1cccc(OCc2cn(CCCN3CCN(C(=O)[C@H](CS(=O)(=O)O)NC(=O)CC[C@H](C(=O)[O-])N4CCN(CC(=O)[O-])CCN(CC(=O)[O-])CC4)CC3)nn2)c1C.[64Cu+2] [[^64Cu]Cu-14]
Given back: 1.26

Asked: What SUVmax PC3 PD-L1 tumor value was documented for this compound, Cc1c(COc2cc(OCc3cncc(S(C)(=O)=O)c3)c(CN[C@@H](CS(=O)(=O)O)C(=O)NCCS(=O)(=O)O)cc2Br)cccc1-c1cccc(OCc2cn(CCCN3CCN(C(=O)[C@H](CS(=O)(=O)O)NC(=O)CN4CCCN5CCN(CCCN(CC(=O)[O-])CC5)CC4)CC3)nn2)c1C.[64Cu+2] [[^64Cu]Cu-15] ?
Given back: 0.66 ± 0.16

Where do these numbers come from? They come from paper PMC10876507.
